# Assay Comment: Plasma concentration in CD1 mouse at 1 mg/kg, iv or 5 mg/kg, po measured after 1 hr by LC-MS/MS analysis
# Format: ADME, organism-based
Property: concentration at 1 h (µM)

>  <Mol Smiles>
CC(=O)N[C@@H](CCCN)C(=O)NC(C)(C)C(N)=O

>  <Property>
concentration at 1 h

>  <Unit Spec>
µM

>  <Recorded Number>
11.6

$$$$

====

# Assay Comment: Oral bioavailability in CD1 mouse at 5 mg/kg by LC-MS/MS analysis
# Assay type: ADME, organism-based
# Measurement Context: in vivo
Property: bioavailability (%)

>  <Mol Smiles>
CC(=O)N[C@@H](CCCN)C(=O)NC(C)(C)C(N)=O

>  <Recorded Number>
9

$$$$

====

# Subject Of Test: Thrombospondin-1 (Homo sapiens, UniProt P07996)
# Sequence (P07996 whole entry): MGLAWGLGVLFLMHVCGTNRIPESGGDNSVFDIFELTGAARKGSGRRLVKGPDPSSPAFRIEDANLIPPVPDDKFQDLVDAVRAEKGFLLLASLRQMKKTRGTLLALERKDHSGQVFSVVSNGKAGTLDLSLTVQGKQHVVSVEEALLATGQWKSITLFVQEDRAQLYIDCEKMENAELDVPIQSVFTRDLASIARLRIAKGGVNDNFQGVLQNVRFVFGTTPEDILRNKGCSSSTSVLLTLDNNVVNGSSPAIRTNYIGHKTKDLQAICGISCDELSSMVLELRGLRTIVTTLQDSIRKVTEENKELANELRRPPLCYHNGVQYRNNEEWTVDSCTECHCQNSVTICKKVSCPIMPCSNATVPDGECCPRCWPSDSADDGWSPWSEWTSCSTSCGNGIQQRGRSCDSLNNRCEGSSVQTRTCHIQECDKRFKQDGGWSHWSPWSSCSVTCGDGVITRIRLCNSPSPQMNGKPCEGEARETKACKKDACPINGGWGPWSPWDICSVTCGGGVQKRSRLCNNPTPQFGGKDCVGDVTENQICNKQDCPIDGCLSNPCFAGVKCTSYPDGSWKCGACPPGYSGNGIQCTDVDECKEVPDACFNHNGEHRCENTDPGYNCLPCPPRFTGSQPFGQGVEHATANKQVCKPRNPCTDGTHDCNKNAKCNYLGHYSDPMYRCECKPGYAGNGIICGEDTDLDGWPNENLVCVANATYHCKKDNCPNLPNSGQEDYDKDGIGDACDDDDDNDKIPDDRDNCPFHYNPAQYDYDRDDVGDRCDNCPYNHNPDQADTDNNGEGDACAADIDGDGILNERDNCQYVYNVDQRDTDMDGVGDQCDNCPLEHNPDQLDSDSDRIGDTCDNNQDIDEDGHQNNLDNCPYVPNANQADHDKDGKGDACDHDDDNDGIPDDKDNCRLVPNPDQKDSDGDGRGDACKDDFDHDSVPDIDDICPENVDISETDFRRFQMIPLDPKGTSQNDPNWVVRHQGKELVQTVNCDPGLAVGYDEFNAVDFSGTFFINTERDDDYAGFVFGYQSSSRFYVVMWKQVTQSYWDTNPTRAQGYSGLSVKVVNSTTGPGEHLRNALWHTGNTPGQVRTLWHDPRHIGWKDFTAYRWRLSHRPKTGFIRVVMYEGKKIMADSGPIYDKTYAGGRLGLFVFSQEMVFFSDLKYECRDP
# Assay Comment: Inhibition of TSP1 in human myeloma cells assessed reduction in TGFbeta activity incubated for 1 hr by ELISA
Peptide text beside a SMILES is read from it.
We label by threshold. Values of IC50 strictly beneath 3 nM are Satisfied. Values of 3 nM and up are Not satisfied.

>  <Molecule>
CC(=O)N[C@@H](CO)C(=O)N[C@@H](CCCCN(C)C)C(=O)N[C@@H](CC(C)C)C(N)=O (HELM PEPTIDE1{[ac].S.[CN(C)CCCC[C@H](N[*:1])C(=O)[*:2]].L.[am]}$$$$V2.0)

>  <Subject Of Test>
Thrombospondin-1 (Homo sapiens, UniProt P07996)

>  <Category Label>
Satisfied

$$$$
>  <Molecule>
CC(=O)N[C@@H](CCCN)C(=O)NC(C)(C)C(N)=O

>  <Subject Of Test>
Thrombospondin-1 (Homo sapiens, UniProt P07996)

>  <Category Label>
Not satisfied

$$$$
>  <Molecule>
CC(=O)N[C@@H](CO)C(=O)N[C@@H](CCCCN)C(=O)N[C@@H](CC(C)C)C(=O)N(C)C (HELM PEPTIDE1{[ac].S.K.L.[CN(C)[*:1]]}$$$$V2.0)

>  <Subject Of Test>
Thrombospondin-1 (Homo sapiens, UniProt P07996)

>  <Category Label>
Not satisfied

$$$$
>  <Molecule>
CC(=O)NCC(=O)N[C@@H](CCCCN)C(=O)N[C@@H](CC(C)C)C(N)=O (Ac-Gly-Lys-Leu-NH2)

>  <Subject Of Test>
Thrombospondin-1 (Homo sapiens, UniProt P07996)

>  <Category Label>
Not satisfied

$$$$
>  <Molecule>
CC(=O)N[C@@H](CO)C(=O)N[C@@H](CCCCN)C(=O)N[C@H](CC(C)C)C(N)=O (HELM PEPTIDE1{[ac].S.K.[dL].[am]}$$$$V2.0)

>  <Subject Of Test>
Thrombospondin-1 (Homo sapiens, UniProt P07996)

>  <Category Label>
Satisfied

$$$$
>  <Molecule>
CNC(=O)[C@H](CC(C)C)NC(=O)[C@@H](CCCCN)NC(=O)[C@@H](NC(C)=O)[C@@H](C)O

>  <Subject Of Test>
Thrombospondin-1 (Homo sapiens, UniProt P07996)

>  <Category Label>
Satisfied

$$$$
>  <Molecule>
CC(=O)N[C@@H](CO)C(=O)N[C@@H](CCCCN)C(=O)N(C)[C@@H](CC(C)C)C(N)=O (HELM PEPTIDE1{[ac].S.K.[meL].[am]}$$$$V2.0)

>  <Subject Of Test>
Thrombospondin-1 (Homo sapiens, UniProt P07996)

>  <Category Label>
Satisfied

$$$$
>  <Molecule>
CC(=O)NCCCC[C@H](NC(=O)[C@H](CO)NC(C)=O)C(=O)N[C@@H](CC(C)C)C(N)=O (Ac-Ser-Lys(Ac)-Leu-NH2)

>  <Subject Of Test>
Thrombospondin-1 (Homo sapiens, UniProt P07996)

>  <Category Label>
Not satisfied

$$$$
>  <Molecule>
CCC(=O)N[C@@H](CO)C(=O)N[C@@H](CCCCN)C(=O)N[C@@H](CC(C)C)C(N)=O (HELM PEPTIDE1{[CCC(=O)[*:2]].S.K.L.[am]}$$$$V2.0)

>  <Subject Of Test>
Thrombospondin-1 (Homo sapiens, UniProt P07996)

>  <Category Label>
Not satisfied

$$$$
>  <Molecule>
CNCCCC[C@H](NC(=O)[C@H](CO)NC(C)=O)C(=O)N[C@@H](CC(C)C)C(N)=O (HELM PEPTIDE1{[ac].S.[CNCCCC[C@H](N[*:1])C(=O)[*:2]].L.[am]}$$$$V2.0)

>  <Subject Of Test>
Thrombospondin-1 (Homo sapiens, UniProt P07996)

>  <Category Label>
Not satisfied

$$$$
>  <Molecule>
CC(=O)N[C@@H](CO)C(=O)N[C@H](CCCCN)C(=O)N[C@@H](CC(C)C)C(N)=O (HELM PEPTIDE1{[ac].S.[dK].L.[am]}$$$$V2.0)

>  <Subject Of Test>
Thrombospondin-1 (Homo sapiens, UniProt P07996)

>  <Category Label>
Satisfied

$$$$
>  <Molecule>
CC(=O)N[C@@H](CC(N)=O)C(=O)N[C@@H](CCCCN)C(=O)N[C@@H](CC(C)C)C(N)=O (Ac-Asn-Lys-Leu-NH2)

>  <Subject Of Test>
Thrombospondin-1 (Homo sapiens, UniProt P07996)

>  <Category Label>
Not satisfied

$$$$
>  <Molecule>
CC(=O)N[C@@H](CO)C(=O)N[C@@H](CCCCN)C(=O)N[C@@H](CC(C)C)C(N)=O (Ac-Ser-Lys-Leu-NH2)

>  <Subject Of Test>
Thrombospondin-1 (Homo sapiens, UniProt P07996)

>  <Category Label>
Not satisfied

$$$$
>  <Molecule>
CC(=O)N[C@H](CO)C(=O)N[C@@H](CCCCN)C(=O)N[C@@H](CC(C)C)C(N)=O (HELM PEPTIDE1{[ac].[dS].K.L.[am]}$$$$V2.0)

>  <Subject Of Test>
Thrombospondin-1 (Homo sapiens, UniProt P07996)

>  <Category Label>
Satisfied

$$$$
